// reported cytotoxicity at 10 µM for each item listed
measurement notes: Toxicity liver stage against HepG2, at 10uM
Assay type: cell-based
Parameters: test concentration 10 uM, cell line HepG2-A16-CD81EGFP
measurement parameters: human, HepG2-A16-CD81EGFP cells; read-out: INHIBITION
test readout: cytotoxicity at 10 µM (%)

[
  {
    "molecule": "O=C(NCc1csc(-c2cnccn2)n1)c1cnn2c1CCCC2",
    "test readout": "cytotoxicity at 10 µM",
    "reading": 0.209
  },
  {
    "molecule": "OCc1cn(Cc2cccc(C(F)(F)F)c2)nn1",
    "test readout": "cytotoxicity at 10 µM",
    "reading": 8.02
  },
  {
    "molecule": "Cc1cccc(CSc2ncc(Br)c(C(=O)O)n2)c1",
    "test readout": "cytotoxicity at 10 µM",
    "reading": -9.41
  },
  {
    "molecule": "Cc1ncccc1NC(=O)[C@@H]1CCO[C@@H]2CCN(c3ccncn3)C[C@H]21",
    "test readout": "cytotoxicity at 10 µM",
    "reading": 5.59
  },
  {
    "molecule": "Cc1nn(C)cc1C(C)Nc1ncnc2sccc12 (stereo unspecified)",
    "test readout": "cytotoxicity at 10 µM",
    "reading": 14.1
  },
  {
    "molecule": "COCC1CC2(CCN(S(=O)(=O)C3CC3)CC2)CN1c1ncccn1 (stereo unspecified)",
    "test readout": "cytotoxicity at 10 µM",
    "reading": -2.01
  }
]

---

We begin with a simple list: items and their reported cytotoxicity at 10 µM.
measurement notes: Toxicity liver stage against HepG2, at 10uM
Assay type: cell-based
Design: test concentration 10 uM, cell line HepG2-A16-CD81EGFP
measurement parameters: human, HepG2-A16-CD81EGFP cells; read-out: INHIBITION

[
  {
    "molecule": "CC1CCN(CCCNC(=O)Nc2cc3c(cc2Br)OCCO3)CC1",
    "cytotoxicity at 10 µM [%]": -3.11
  },
  {
    "molecule": "CCOCC(O)c1nc2c([nH]1)CC(C)(C)CNC2=O (stereo unspecified)",
    "cytotoxicity at 10 µM [%]": 4.71
  },
  {
    "molecule": "COC(C)(C)CC(C)NC(=O)Nc1ccccn1 (stereo unspecified)",
    "cytotoxicity at 10 µM [%]": 8.19
  },
  {
    "molecule": "O=S(=O)(c1ccc(F)cc1)N1CC[C@H]2[C@H]1CCN2c1ncccn1",
    "cytotoxicity at 10 µM [%]": -2.85
  },
  {
    "molecule": "Cc1cccc(-c2noc([C@@H]3C[C@@H](O)CN3C)n2)c1",
    "cytotoxicity at 10 µM [%]": -3.54
  },
  {
    "molecule": "CCC[C@H]1CN(C2CCOCC2)C[C@@H]1NC(=O)CCc1cnccn1",
    "cytotoxicity at 10 µM [%]": 3.12
  },
  {
    "molecule": "OCC1(CNC2CCc3cc4c(cc32)OCCO4)CC1 (stereo unspecified)",
    "cytotoxicity at 10 µM [%]": -3.37
  },
  {
    "molecule": "O=C(CCCNc1ncccn1)Nc1ccc(Cn2cncn2)cc1",
    "cytotoxicity at 10 µM [%]": 0.55
  },
  {
    "molecule": "O=C(C1CCCCC1)N1CCO[C@@H]2CNC[C@@H]21",
    "cytotoxicity at 10 µM [%]": 8.82
  },
  {
    "molecule": "COc1ccc(-c2nnc(SC(C)C(=O)NCC(C)C)[nH]2)c(OC)c1 (stereo unspecified)",
    "cytotoxicity at 10 µM [%]": 83.5
  },
  {
    "molecule": "COc1cc(C(=O)N2CCCS2(=O)=O)ccc1C",
    "cytotoxicity at 10 µM [%]": 2.72
  }
]
